Where do these numbers come from? They come from patent US10669269B2.

subject-of-test: PDGFR beta (Homo sapiens, UniProt P09619)
Construct: endogenous in cells; host or cells: HS27 human fibroblast cell line
Sequence (P09619 33-1106): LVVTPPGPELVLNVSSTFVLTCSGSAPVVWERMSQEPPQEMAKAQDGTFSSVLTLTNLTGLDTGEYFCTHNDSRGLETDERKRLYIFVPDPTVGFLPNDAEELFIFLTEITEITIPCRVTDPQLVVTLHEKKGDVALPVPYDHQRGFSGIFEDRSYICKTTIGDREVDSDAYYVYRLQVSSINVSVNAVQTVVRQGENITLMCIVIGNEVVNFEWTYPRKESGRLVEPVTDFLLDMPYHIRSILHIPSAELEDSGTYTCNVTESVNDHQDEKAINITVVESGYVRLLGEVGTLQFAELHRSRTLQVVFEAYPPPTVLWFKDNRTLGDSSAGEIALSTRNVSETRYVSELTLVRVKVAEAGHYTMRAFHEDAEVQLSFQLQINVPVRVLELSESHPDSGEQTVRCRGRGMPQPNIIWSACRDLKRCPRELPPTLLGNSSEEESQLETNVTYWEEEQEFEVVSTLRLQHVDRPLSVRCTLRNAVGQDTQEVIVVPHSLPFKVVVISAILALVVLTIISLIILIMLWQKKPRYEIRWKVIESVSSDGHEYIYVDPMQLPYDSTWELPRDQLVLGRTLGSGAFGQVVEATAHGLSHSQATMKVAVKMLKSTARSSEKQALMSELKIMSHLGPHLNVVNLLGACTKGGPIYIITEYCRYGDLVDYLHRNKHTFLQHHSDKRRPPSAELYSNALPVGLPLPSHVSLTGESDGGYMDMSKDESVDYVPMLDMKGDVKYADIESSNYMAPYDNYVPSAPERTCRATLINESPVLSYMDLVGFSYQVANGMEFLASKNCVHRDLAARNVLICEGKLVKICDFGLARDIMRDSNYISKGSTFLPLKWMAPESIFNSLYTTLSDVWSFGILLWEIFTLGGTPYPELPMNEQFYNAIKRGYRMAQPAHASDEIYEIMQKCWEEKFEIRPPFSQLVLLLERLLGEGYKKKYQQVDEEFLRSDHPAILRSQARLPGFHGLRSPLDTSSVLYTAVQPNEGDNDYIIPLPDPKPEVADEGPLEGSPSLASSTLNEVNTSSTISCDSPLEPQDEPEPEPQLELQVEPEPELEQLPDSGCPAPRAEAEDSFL
protocol-description: Phospho PDGFR Cell Assay, sandwich ELISA (Example A)
Type: cell-based
test-context: averaged IC50, PDGFR beta phosphorylation in HS27 human fibroblast cell line, PDGF-BB stimulation 5 minutes
pIC50: −log10 of the molar value. Structures can show the parent of a compound that is named as a salt.
# pIC50 >= 7 gives yes (1), anything below gives no (0)

These recorded examples may help you get a feel for the data.
Cc1cccc(CCn2nc(C)c3c(NC(=O)c4cnc5cc(OCCN6CCN(C)[C@@H](C)C6)ccn45)cccc32)n1 | no (0)
COCCOc1ccn2c(C(=O)Nc3cccc4c3c(C)nn4CC3CCOCC3)cnc2c1 | no (0)
Cc1nn(Cc2cccc(C(C)C)n2)c2cccc(NC(=O)c3cnc4cc(OCCN5C[C@@H](C)N(C)[C@@H](C)C5)ccn34)c12 | yes (1)
Cc1cccc(Cn2nc(C)c3c(NC(=O)c4cnc5cc(F)ccn45)cccc32)n1 | no (0)

Request: Decide: is the reported value of pIC50 for `Cc1cccc(Cn2nc(C)c3c(NC(=O)c4cnc5cc(CCN6CCCC6)ccn45)cccc32)n1` equal to or greater than 7?
Result: no (0)

Request: Would you say `COCCN1CCN(CCOc2ccn3c(C(=O)Nc4cccc5c4c(C)nn5Cc4cccc(C5CC5)n4)cnc3c2)CC1` shows pIC50 at minimum 7?
Result: yes (1)

Request: Could you tell me if the measured pIC50 of Cc1cccc(Cn2nc(C)c3c(NC(=O)c4cnc5cc(OCCO)ccn45)cccc32)n1 [Example 57, di-hydrochloride salt] reaches 7 or more?
Result: no (0)
